- targetOfAssay: EBP (Homo sapiens, UniProt Q15125)
- Construct: HEK293T cells were utilized as the source of EBP enzyme; endogenous in cells
- Sequence (Q15125 whole entry): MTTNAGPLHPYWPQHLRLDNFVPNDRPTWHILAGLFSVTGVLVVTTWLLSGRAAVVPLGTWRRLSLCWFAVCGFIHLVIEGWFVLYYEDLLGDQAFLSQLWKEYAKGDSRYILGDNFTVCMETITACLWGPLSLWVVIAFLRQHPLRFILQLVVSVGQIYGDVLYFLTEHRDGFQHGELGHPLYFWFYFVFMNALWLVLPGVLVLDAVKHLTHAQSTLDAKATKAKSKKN
- assayRemarks: EBP Functional Assay (EBP immunoaffinity LC-MS assay)
- experimentalParameters: HEK293T cells as source of EBP enzyme; substrate zymosterol-d5, 37° C. for 4 h; percent conversion to dehydrolathosterol-d5 by LC-APCI MRM MS
pIC50: −log10 of the molar value.
// values below are reported pIC50
measurementKind: pIC50

• Cn1nc(C(F)F)cc1S(=O)(=O)N1CCC2(CCC(N3CC4(COC4)C3)C2)CC1 (centres unmarked) [Example 125] = > 7.00
• COc1ncc(Cl)cc1S(=O)(=O)N1CCC2(CC1)CC(N1CC(OC)C1)CO2 (centres unmarked) [Example 61] = 5.82 to 6.60
• Cc1ccc(F)c(S(=O)(=O)N2CCC3(CC2)CC(N2CCOCC2)CO3)c1 (centres unmarked) [Example 18] = 6.60 to 7.00
• Cc1cc(S(=O)(=O)N2CCC3(CCC(N4CC5(COC5)C4)C3)CC2)cnc1C (centres unmarked) [Example 109] = 6.60 to 7.00
• Cc1cnc(S(=O)(=O)N2CCC3(CCC(N4CCOCC4)C3)CC2)c(C)c1 (centres unmarked) [Example 25] = 6.60 to 7.00
• N#Cc1cccc(S(=O)(=O)N2CCC3(CCC(N4CC5(COC5)C4)C3)CC2)c1 (centres unmarked) [Example 11] = 6.60 to 7.00
• N#Cc1cc(F)cc(S(=O)(=O)N2CCC3(CC2)CC(N2CC4(COC4)C2)C3)c1 [Example 96] = 5.82 to 6.60
• O=S(=O)(c1cc(F)ccc1F)N1CCC2(CC1)CC(N1CCOCC1)CO2 (centres unmarked) [Example 19] = 5.82 to 6.60
• Cc1nc(C(F)(F)F)ccc1S(=O)(=O)N1CCC2(CC1)CC(N1CC(O)C1)C2 [Example 95] = > 7.00
• Cn1nc2c(c1S(=O)(=O)N1CCC3(CCC(N4CCOCC4)C3)CC1)COCC2 (centres unmarked) [Example 24] = 5.82 to 6.60
• Cc1nc(C(F)(F)F)ccc1S(=O)(=O)N1CCC2(CC1)CC(NC1CCOCC1)CO2 (centres unmarked) [Example 138] = 5.82 to 6.60
